Where do these numbers come from? They come from ChEMBL document CHEMBL4000196.

Assay: Selectivity index, ratio of IC50 for HFF1 to IC50 for human SNB19 cells harboring undetectable levels of NQO1
The threshold is 1. Values of Ratio IC50 beneath it are tagged t; values meeting or exceeding it are tagged f.

[[record]]
molecule = "O=C1C(Cl)=C(OCC#CCCl)C(=O)c2ncccc21"
group_label = "t"

[[record]]
molecule = "C#CCOC1=C(OCC#C)C(=O)c2ncccc2C1=O"
group_label = "t"

[[record]]
molecule = "O=C1C(OCC#CCCl)=C(OCC#CCCl)C(=O)c2ncccc21"
group_label = "f"

[[record]]
molecule = "O=C(/C=C/c1ccccc1)OCC#CCOC1=C(OCC#CCOC(=O)/C=C/c2ccccc2)C(=O)c2ncccc2C1=O"
group_label = "f"

[[record]]
molecule = "C#CC(C)OC1=C(OC(C)C#C)C(=O)c2ncccc2C1=O (configuration not stated)"
group_label = "f"

[[record]]
molecule = "C#CCOC1=C(Cl)C(=O)c2cccnc2C1=O"
group_label = "t"

[[record]]
molecule = "O=C1C(Cl)=C(OCC#Cc2ccccc2)C(=O)c2ncccc21"
group_label = "t"

[[record]]
molecule = "C#CCCOC1=C(Cl)C(=O)c2cccnc2C1=O"
group_label = "t"

[[record]]
molecule = "O=C(OCC#CCOC1=C(Cl)C(=O)c2cccnc2C1=O)c1ccccc1"
group_label = "f"

[[record]]
molecule = "C#CC(C)OC1=C(Cl)C(=O)c2cccnc2C1=O (configuration not stated)"
group_label = "f"

[[record]]
molecule = "O=C(/C=C/c1ccccc1)OCC#CCOC1=C(Cl)C(=O)c2cccnc2C1=O"
group_label = "f"

[[record]]
molecule = "O=C(OCC#CCOC1=C(OCC#CCOC(=O)c2ccccc2)C(=O)c2ncccc2C1=O)c1ccccc1"
group_label = "f"

